assay_text: folding enthalpy; higher = less favourable; fluorescence melt of hairpins on a sequencing array, two-state fit
reported_conditions: sodium 0.088 M
Recorded folding enthalpy, one value per entry.

[[record]]
sequence_string = "GCCTACGAAAGTAGGGGC ((((((....)))..)))"
measurement_type = "folding enthalpy"
measurement = "-14.4 kcal/mol"

[[record]]
sequence_string = "GTCCTCTCGAAAGAGGAC (((..(((....))))))"
measurement_type = "folding enthalpy"
measurement = "-36.2 kcal/mol"

[[record]]
sequence_string = "GATTCAGGAAACCGAATC (((((.(....).)))))"
measurement_type = "folding enthalpy"
measurement = "-26.2 kcal/mol"

[[record]]
sequence_string = "GAGCCCGGAAACGAGCCC (.((.((....)).)).)"
measurement_type = "folding enthalpy"
measurement = "-14 kcal/mol"

[[record]]
sequence_string = "GTTGCAGGAAACTACAAC ((((.((....)).))))"
measurement_type = "folding enthalpy"
measurement = "-27.6 kcal/mol"

[[record]]
sequence_string = "CGAACGGAAACGTTGTCG ((((((....)))..)))"
measurement_type = "folding enthalpy"
measurement = "-14.1 kcal/mol"


Let us move to another entry and its folding enthalpy.
Data request: Entry under review: GCGCTAGGAAACCAACGC (((.(.(....).).))) . Reported folding enthalpy?
Data returned: -10.5 kcal/mol

* * *

Listing of entries alongside the reported Tm.
assay_text: melting temperature; fluorescence melt of hairpins on a sequencing array, two-state fit, raised by 9.35 °C to match UV melts
reported_conditions: sodium 0.088 M
Write your answer as a measured quantity: the number, then the unit.

These solved cases illustrate the format of a correct answer.
[[record]]
sequence_string = "GATCCTGGGTAGGATC ((((((....))))))"
measurement = "51.3 °C"

[[record]]
sequence_string = "GCTAAGCGAAAGCCTAGC ((((.((....)).))))"
measurement = "49.1 °C"

[[record]]
sequence_string = "GCGATTGGAAACAATCAC (.(((((....))))).)"
measurement = "40 °C"

[[record]]
sequence_string = "GCAGCCGAAAGGCTATGC ((((((....)))..)))"
measurement = "47.4 °C"

[[record]]
sequence_string = "TGTGAGAAATCACA (((((....)))))"
measurement = "38.9 °C"

[[record]]
sequence_string = "GCGCTCGAAAGAGTACGC ((((((....)))..)))"
measurement = "50 °C"

[[record]]
sequence_string = "GCACAAGGAAACTTGCGC ((.((((....)))).))"
measurement = "48.4 °C"

[[record]]
sequence_string = "GGCCACGGAAACATGGCC (((((.(....).)))))"
measurement = "53.3 °C"

[[record]]
sequence_string = "GATATCGGAAACGATGTC ((.((((....)))).))"
measurement = "46.7 °C"


Now examine the next entry.
Data request: // Tm lookup, key: GGCCGATCGAAAGATGCC (((..(((....))))))
Data returned: 38.9 °C

* * *

assay_text: melting temperature; fluorescence melt of hairpins on a sequencing array, two-state fit, raised by 9.35 °C to match UV melts
reported_conditions: sodium 0.088 M
measurement_type: Tm (°C)
Output spec: scalar in °C, unitless text.

[[record]]
sequence_string = "GAGACTGCGAAAGCACTC (((..(((....))))))"
measurement = 26.7

[[record]]
sequence_string = "GATCAAAATTTTGATC ((((((....))))))"
measurement = 48.3

[[record]]
sequence_string = "GGCTTCGAAAGAATCGCC ((((((....)))..)))"
measurement = 35.8


Attention now shifts to the item below.
Data request: Quick one: Tm of GCATAGCGAAAGCTCGGC ((..(((....)))..)) ?
Data returned: 36.5

* * *

Listed sequences paired with reported Tm
assay_text: melting temperature; fluorescence melt of hairpins on a sequencing array, two-state fit, raised by 9.35 °C to match UV melts
reported_conditions: sodium 0.088 M

Example entries begin here.
[[record]]
sequence_string = "GTCAGAACGAAAGTTGAC (((..(((....))))))"
measurement = "36.9 °C"

[[record]]
sequence_string = "GATCACCCAAGTGATC ((((((....))))))"
measurement = "55.7 °C"

[[record]]
sequence_string = "GTGGGTGGAAACACCCGC (.(((((....))))).)"
measurement = "63.3 °C"

[[record]]
sequence_string = "GCTGGTGGAAACGCCAGC (((((.(....).)))))"
measurement = "61.8 °C"


Data request: Entry under review: GCGTAGCGAAAGCAATGC ((.(.((....)).).)) . Reported Tm?
Data returned: 35.8 °C

Data request: Can you share its Tm? I mean this sequence: GCTACTGGAAACAGTAGC (((((((....)))))))
Data returned: 64 °C

Data request: Would you mind telling me what Tm value was observed for GCGGTGCGAAAGCATAGC ((..(((....)))..)) ?
Data returned: 63.4 °C

Data request: Return reported Tm; argument: CGTATCCGGAAACGGACG (((..(((....))))))
Data returned: 32.5 °C

Data request: # query: Tm of entry GATCACGAAGGTGATC ((((((....))))))
Data returned: 65.3 °C

Data request: Query: Tm; subject: GAACCCGGAAACGGGTCC (.(((((....))))).)
Data returned: 45.4 °C

Data request: Dear colleague, I am looking for the recorded Tm of the following sequence: GGCTGAGGAAACTCGGTC (.(.(((....))).).)
Data returned: 40.8 °C

Data request: Requested read-out: Tm. Entry: GGATTTGGAAACGAATCC (((((.(....).)))))
Data returned: 46.1 °C

Data request: Endpoint output: Tm of GGCTACCGAAAGGTTGCC (((.(((....))).))) . Value?
Data returned: 63 °C

Data request: Could you tell me which Tm is on file for GGACCAGGAAACTGGTCC (((((((....))))))) ?
Data returned: 68.1 °C

Data request: Quick check: Tm of GATCAGCCATCTGATC ((((((....)))))) ?
Data returned: 49.4 °C

Data request: If you can, please state the reported Tm value of GTTGTCCCGAAAGGGAAC (((..(((....)))))) .
Data returned: 50.4 °C

Data request: Give its Tm value. Item: GCTGGAGGAAACCCCAGC (((((.(....).)))))
Data returned: 52.8 °C

Data request: Record request: Tm value, item GAAGTAGAAATACTTC ((((((....))))))
Data returned: 42.5 °C

Data request: I would be grateful if you could share the reported Tm for GATCACAACGGTGATC ((((((....)))))) .
Data returned: 56 °C

Data request: Can you look up the measured Tm of GATCTCAGATGAGATC ((((((....)))))) for me?
Data returned: 52.5 °C

Data request: Any idea what its Tm is? The sequence is GATCACGGGGTGATC ((((((...))))))
Data returned: 60.3 °C

Data request: Report Tm for GCCCAGCGAAAGCGTGGC (((..((....))..))) please.
Data returned: 62.4 °C

* * *

assay_text: melting temperature; fluorescence melt of hairpins on a sequencing array, two-state fit, raised by 9.35 °C to match UV melts
reported_conditions: sodium 0.088 M
# Tm listing for each entry below
Express your answer in °C, writing the number without its unit.

[[record]]
sequence_string = "GTCCAAGGAAACTTGGGC (.(((((....))))).)"
measurement_type = "Tm"
measurement = 51.1

[[record]]
sequence_string = "GTAGAACCGAAAGGTTAC (((..(((....))))))"
measurement_type = "Tm"
measurement = 32.5

[[record]]
sequence_string = "GCATTTGGAAACGAATGC (((((.(....).)))))"
measurement_type = "Tm"
measurement = 49

[[record]]
sequence_string = "GGTGTCCGAAAGGATACC (((.(((....))).)))"
measurement_type = "Tm"
measurement = 59.9

[[record]]
sequence_string = "GATAGGGGAAACCTTATC ((((.((....)).))))"
measurement_type = "Tm"
measurement = 33.6

[[record]]
sequence_string = "GCTCCCGAAAGGGCAAGC ((((((....)))..)))"
measurement_type = "Tm"
measurement = 42.2

[[record]]
sequence_string = "GATCACAACAGTGATC ((((((....))))))"
measurement_type = "Tm"
measurement = 58.7

[[record]]
sequence_string = "AGACAGAAATGTCT (((((....)))))"
measurement_type = "Tm"
measurement = 41.7


Data request: I'd like to know its Tm. The sequence in question is GGTGGTGGAAACGCCACC (((((.(....).)))))
Data returned: 63.5

Data request: So what does the record say about Tm for GTTAAGGGAAACCTTAAC (((((((....))))))) ?
Data returned: 50.5

Data request: Which value of Tm has been reported for GTGATTCGAAAGAACCAC (((.(((....))).))) in the records?
Data returned: 44.8

Data request: Quick one: Tm for GACGGCGAAAGCCCTGTC ((((((....)))..))) ?
Data returned: 38.6

Data request: Recorded Tm of GTCAAGCGAAAGCTGAC (((.(((....)))))) , please.
Data returned: 58.6

Data request: Need Tm, item GGTAGGCGAAAGCCGACC (((.(((....))).)))
Data returned: 65.4

Data request: Item CGAACGGAAACGTCCTCG ((((((....)))..))) has what recorded Tm?
Data returned: 26.2

Data request: Dear colleague, I am looking for the recorded Tm of the following sequence: GCGGCGGGAAACCACCGC ((((.((....)).))))
Data returned: 60.3

Data request: I have this sequence here, GTCGGCGAAAGCCTCGAC ((((((....)))..))) , and I need its recorded Tm.
Data returned: 42.4

Data request: Tell me the measured Tm of GATCTGCGATCAGATC ((((((....)))))) , please.
Data returned: 47.1

Data request: Give the measured Tm of GATCCATCGTGGATC ((((((...)))))) .
Data returned: 50.8

Data request: Name the reported Tm value associated with the sequence GAAACGCGAAAGCGCTTC (((.(((....))).)))
Data returned: 51.5
